Data origin, for the record: patent US11180487B2

readout type: melting point (°C)
Numbers only, in °C.

CC1(C)CNc2c(C#N)cc(-c3ccnc(Nc4cc(Cl)ccc4OCCO)n3)cc21	176
COCCCc1ccc(C#N)cc1Nc1nccc(-c2cc(C#N)c3c(c2)[C@@](C)(CO)CN3)n1	124
Cc1ccc(C#N)cc1Nc1nccc(-c2cc(C#N)c3c(c2)[C@@](C)(CF)CN3)n1	194
Cc1cc(F)c(C(=O)NCC2COC2)cc1Nc1nccc(-c2cc(C#N)c3c(c2)[C@@](C)(CO)CN3)n1	209
CC1(COc2ccc(C#N)cc2Nc2nccc(-c3cc(C#N)c4c(c3)[C@@](C)(CO)CN4)n2)COC1	162

Quick one: give me melting point for each item below, same order please.
1. Cc1cc(CCCN)c(C#N)cc1Nc1nccc(-c2cc(C#N)c3c(c2)[C@@](C)(CO)CN3)n1
2. Cc1ccc(C(=O)N2CCN(C)CC2)cc1Nc1nccc(-c2cc(C#N)c3c(c2)[C@@](C)(CO)CN3)n1

Found:
1. 207
2. 245
